From: the supplement of paper PMC10307832

test system: NCI-H2347; test: relative viability (nuclei count vs DMSO), 5 days (fraction); higher = more cells survive; conditions: first compound 0.01 µM
Let's look at some molecules and their measured relative viability.
Give the figure only, with no unit attached.

In the examples that follow, each entry is paired with its recorded relative viability.
O=c1cc(N2CCOCC2)oc2c(-c3cccc4c3sc3ccccc34)cccc12 + O=C(CCCCCCC(=O)Nc1ccccc1)NO [Vorinostat] (partner 1 µM) : 0.622
CCN(CC)CCCCNc1ncc2cc(-c3cc(OC)cc(OC)c3)c(NC(=O)NC(C)(C)C)nc2n1 + O=C(c1cc(Cc2n[nH]c(=O)c3ccccc23)ccc1F)N1CCN(C(=O)C2CC2)CC1 [Olaparib] (partner 8 µM) : 0.585
CCN(CC)CCCCNc1ncc2cc(-c3cc(OC)cc(OC)c3)c(NC(=O)NC(C)(C)C)nc2n1 + CC(=O)c1c(C)c2cnc(Nc3ccc(N4CCNCC4)cn3)nc2n(C2CCCC2)c1=O [Palbociclib] (partner 0.5 µM) : 0.551
O=c1cc(N2CCOCC2)oc2c(-c3cccc4c3sc3ccccc34)cccc12 + Cc1cc(Nc2cc(N3CCN(C)CC3)nc(Sc3ccc(NC(=O)C4CC4)cc3)n2)n[nH]1 [Tozasertib] (partner 0.1 µM) : 0.618

Now let's try a different one.
input: For the molecule shown here, O=c1cc(N2CCOCC2)oc2c(-c3cccc4c3sc3ccccc34)cccc12 + CC(=O)c1c(C)c2cnc(Nc3ccc(N4CCNCC4)cn3)nc2n(C2CCCC2)c1=O [Palbociclib] (partner 0.5 µM) , give the reported relative viability.
output: 0.365

====

system: A-427; assay: relative viability (nuclei count vs DMSO), 5 days (fraction); higher = more cells survive; settings: first compound 0.08 µM
Let's look at some compounds and their measured relative viability.
Give the figure only, with no unit attached.

O=c1cc(-c2cccc3c2Sc2ccccc2S3)oc(N2CCOCC2)c1 + CC1(C)CCC(c2ccc(Cl)cc2)=C(CN2CCN(c3ccc(C(=O)NS(=O)(=O)c4ccc(N[C@H](CCN5CCOCC5)CSc5ccccc5)c(S(=O)(=O)C(F)(F)F)c4)cc3)CC2)C1 [Navitoclax] (partner 0.5 µM) : 0.962
COc1nc(C)cnc1NS(=O)(=O)c1cccnc1-c1ccc(-c2nnco2)cc1 [Zibotentan] + Nc1nc2[nH]cc(CCc3ccc(C(=O)N[C@@H](CCC(=O)O)C(=O)O)cc3)c2c(=O)[nH]1 [Pemetrexed] (partner 0.2 µM) : 1.18
O=c1cc(-c2cccc3c2Sc2ccccc2S3)oc(N2CCOCC2)c1 + NC(=O)Nc1cc(-c2cccc(F)c2)sc1C(=O)N[C@H]1CCCNC1 [AZD7762] (partner 0.2 µM) : 0.715

Now let's try a different one.
input: For the compound shown here, O=c1cc(-c2cccc3c2Sc2ccccc2S3)oc(N2CCOCC2)c1 + CCNC(=O)c1noc(-c2cc(C(C)C)c(O)cc2O)c1-c1ccc(CN2CCOCC2)cc1 [Luminespib] (partner 0.01 µM) , give the reported relative viability.
output: 0.92

====

test system: HARA; assay: relative viability (nuclei count vs DMSO), 5 days (fraction); higher = more cells survive; conditions: first compound 20 µM
Let's look at some compounds and their measured relative viability.
Give the figure only, with no unit attached.

In the examples that follow, each entry is paired with its recorded relative viability.
COCC1(CO)C(=O)C2CCN1CC2 (configuration not stated) [PRIMA-1MET] + C[C@@H](Oc1cc(-c2cnn(C3CCNCC3)c2)cnc1N)c1c(Cl)ccc(F)c1Cl [Crizotinib] (partner 1 µM) : 0.99
COCC1(CO)C(=O)C2CCN1CC2 (configuration not stated) [PRIMA-1MET] + Nc1nc2[nH]cc(CCc3ccc(C(=O)N[C@@H](CCC(=O)O)C(=O)O)cc3)c2c(=O)[nH]1 [Pemetrexed] (partner 0.2 µM) : 0.247
COCC1(CO)C(=O)C2CCN1CC2 (configuration not stated) [PRIMA-1MET] + CC1(C)CCC(c2ccc(Cl)cc2)=C(CN2CCN(c3ccc(C(=O)NS(=O)(=O)c4ccc(N[C@H](CCN5CCOCC5)CSc5ccccc5)c(S(=O)(=O)C(F)(F)F)c4)cc3)CC2)C1 [Navitoclax] (partner 0.5 µM) : 1.11
COCC1(CO)C(=O)C2CCN1CC2 (configuration not stated) [PRIMA-1MET] + O=C(CCCCCCC(=O)Nc1ccccc1)NO [Vorinostat] (partner 1 µM) : 0.499
COCC1(CO)C(=O)C2CCN1CC2 (configuration not stated) [PRIMA-1MET] + COc1cccc2cc(-c3nc([C@H]4CC[C@H](C(=O)O)CC4)n4ncnc(N)c34)[nH]c12 [OSI-027] (partner 0.5 µM) : 0.417

input: For the compound shown here, COCC1(CO)C(=O)C2CCN1CC2 (configuration not stated) [PRIMA-1MET] + Nc1ncn([C@H]2C[C@H](O)[C@@H](CO)O2)c(=O)n1 [Decitabine] (partner 2 µM) , give the reported relative viability.
output: 0.607

input: For the compound shown here, COCC1(CO)C(=O)C2CCN1CC2 (configuration not stated) [PRIMA-1MET] + CC(=O)Nc1cccc(-n2c(=O)n(C3CC3)c(=O)c3c(Nc4ccc(I)cc4F)n(C)c(=O)c(C)c32)c1 [Trametinib] (partner 0.02 µM) , give the reported relative viability.
output: 0.736

====

test system: NCI-H1651; assay: relative viability (nuclei count vs DMSO), 5 days (fraction); higher = more cells survive; details: first compound 0.1 µM
readout_kind: relative viability
Give the figure only, with no unit attached.

In the examples that follow, each entry is paired with its recorded relative viability.
CCN(CC)CCCCNc1ncc2cc(-c3cc(OC)cc(OC)c3)c(NC(=O)NC(C)(C)C)nc2n1 + CC(=O)Nc1cccc(-n2c(=O)n(C3CC3)c(=O)c3c(Nc4ccc(I)cc4F)n(C)c(=O)c(C)c32)c1 [Trametinib] (partner 0.02 µM) : 0.842
CCN(CC)CCCCNc1ncc2cc(-c3cc(OC)cc(OC)c3)c(NC(=O)NC(C)(C)C)nc2n1 + COc1cc2c(Oc3ccc(NC(=O)C4(C(=O)Nc5ccc(F)cc5)CC4)cc3F)ccnc2cc1OCCCN1CCOCC1 [Foretinib] (partner 0.25 µM) : 0.82
O=c1cc(N2CCOCC2)oc2c(-c3cccc4c3sc3ccccc34)cccc12 + CC1(C)CCC(c2ccc(Cl)cc2)=C(CN2CCN(c3ccc(C(=O)NS(=O)(=O)c4ccc(N[C@H](CCN5CCOCC5)CSc5ccccc5)c(S(=O)(=O)C(F)(F)F)c4)cc3)CC2)C1 [Navitoclax] (partner 0.5 µM) : 1.01
CCN(CC)CCCCNc1ncc2cc(-c3cc(OC)cc(OC)c3)c(NC(=O)NC(C)(C)C)nc2n1 + CS(=O)(=O)N1CCN(Cc2cc3nc(-c4cccc5[nH]ncc45)nc(N4CCOCC4)c3s2)CC1 [Pictilisib] (partner 1 µM) : 0.624
CCN(CC)CCCCNc1ncc2cc(-c3cc(OC)cc(OC)c3)c(NC(=O)NC(C)(C)C)nc2n1 + COc1cccc2cc(-c3nc([C@H]4CC[C@H](C(=O)O)CC4)n4ncnc(N)c34)[nH]c12 [OSI-027] (partner 0.5 µM) : 0.782

input: For the compound shown here, O=c1cc(N2CCOCC2)oc2c(-c3cccc4c3sc3ccccc34)cccc12 + O=C(CCCCCCC(=O)Nc1ccccc1)NO [Vorinostat] (partner 1 µM) , give the reported relative viability.
output: 0.528

====

Let's look at some molecules and their measured relative viability.
tested on: NCI-H2126; assay: relative viability (nuclei count vs DMSO), 5 days (fraction); higher = more cells survive; conditions: first compound 0.8 µM
Give the figure only, with no unit attached.

O=c1cc(-c2cccc3c2Sc2ccccc2S3)oc(N2CCOCC2)c1 + CC(=O)c1c(C)c2cnc(Nc3ccc(N4CCNCC4)cn3)nc2n(C2CCCC2)c1=O [Palbociclib] (partner 0.5 µM) : 0.357

input: For the molecule shown here, O=c1cc(-c2cccc3c2Sc2ccccc2S3)oc(N2CCOCC2)c1 + NC(=O)Nc1cc(-c2cccc(F)c2)sc1C(=O)N[C@H]1CCCNC1 [AZD7762] (partner 0.2 µM) , give the reported relative viability.
output: 1.04

input: For the molecule shown here, COc1nc(C)cnc1NS(=O)(=O)c1cccnc1-c1ccc(-c2nnco2)cc1 [Zibotentan] + CC(=O)c1c(C)c2cnc(Nc3ccc(N4CCNCC4)cn3)nc2n(C2CCCC2)c1=O [Palbociclib] (partner 0.5 µM) , give the reported relative viability.
output: 0.34

====

tested on: NCI-H1437; assay: relative viability (nuclei count vs DMSO), 5 days (fraction); higher = more cells survive; details: first compound 0.3162 µM
Checkbox rule: relative viability lower than 1 = met; relative viability not lower than 1 = not met.

Worked examples, 7 molecules total:
CCN(CC)CCCCNc1ncc2cc(-c3cc(OC)cc(OC)c3)c(NC(=O)NC(C)(C)C)nc2n1 + Cc1nc(Nc2ncc(C(=O)Nc3c(C)cccc3Cl)s2)cc(N2CCN(CCO)CC2)n1 [Dasatinib] (partner 0.075 µM) : met
O=c1cc(N2CCOCC2)oc2c(-c3cccc4c3sc3ccccc34)cccc12 + NC(=O)Nc1cc(-c2cccc(F)c2)sc1C(=O)N[C@H]1CCCNC1 [AZD7762] (partner 0.2 µM) : not met
O=c1cc(N2CCOCC2)oc2c(-c3cccc4c3sc3ccccc34)cccc12 + CC(=O)c1c(C)c2cnc(Nc3ccc(N4CCNCC4)cn3)nc2n(C2CCCC2)c1=O [Palbociclib] (partner 0.5 µM) : met
O=c1cc(N2CCOCC2)oc2c(-c3cccc4c3sc3ccccc34)cccc12 + O=C(CCCCCCC(=O)Nc1ccccc1)NO [Vorinostat] (partner 1 µM) : met
CCN(CC)CCCCNc1ncc2cc(-c3cc(OC)cc(OC)c3)c(NC(=O)NC(C)(C)C)nc2n1 + N=C(N)NC(=N)NCCc1ccccc1 [Phenformin] (partner 250 µM) : met
CCN(CC)CCCCNc1ncc2cc(-c3cc(OC)cc(OC)c3)c(NC(=O)NC(C)(C)C)nc2n1 + Nc1ncn([C@H]2C[C@H](O)[C@@H](CO)O2)c(=O)n1 [Decitabine] (partner 2 µM) : met
O=c1cc(N2CCOCC2)oc2c(-c3cccc4c3sc3ccccc34)cccc12 + CCNC(=O)c1noc(-c2cc(C(C)C)c(O)cc2O)c1-c1ccc(CN2CCOCC2)cc1 [Luminespib] (partner 0.01 µM) : not met

input: I'd appreciate it if you could check whether CCN(CC)CCCCNc1ncc2cc(-c3cc(OC)cc(OC)c3)c(NC(=O)NC(C)(C)C)nc2n1 + Nc1nc2[nH]cc(CCc3ccc(C(=O)N[C@@H](CCC(=O)O)C(=O)O)cc3)c2c(=O)[nH]1 [Pemetrexed] (partner 0.2 µM) has relative viability smaller than 1.
output: met
